# reported IC50; entries follow
Tested on: P. falciparum Dd2 (PfLuc) line expressing firefly luciferase, asexual blood stage
Assay: microbe, parasite or virus in culture
Format: cell-based, Plasmodium falciparum
Conditions: Plasmodium falciparum, DD2, read-out: CDD P. falciparum Luciferase 11pt dose response (48hr, n=2): IC50 (μM); 48hr, 11-point, n=2
REPORTED_ENDPOINT: IC50 (µM)

>>> df
                                   compound  censoring_operator  observed_measurement
0  CCCn1nccc1C(=O)N1CCN(C2CCc3ccccc3C2)CC1 (centres unmarked)                   =                 0.205
1  CN(Cc1ncc[nH]1)c1nc(-c2ccccn2)nc2c1CCNCC2                   =                  10.2
2  O=C(Nc1ccc(OC2CCCC2)cc1)C1CCCN1c1nccs1 (centres unmarked)                   >                    10
3    c1cnc(N2CCC(c3csc(Nc4cnccn4)n3)CC2)nc1                   =                0.0592
4  CN(C)CCCNCCC(Cc1ccccc1)C1CCOC(C)(C)C1 (centres unmarked)                   =                 0.405

====

Test system: P. falciparum Dd2 (PfLuc) line expressing firefly luciferase, asexual blood stage
Experiment: microbe, parasite or virus in culture
Format: cell-based, Plasmodium falciparum
Conditions: Plasmodium falciparum, DD2, read-out: CDD P. falciparum Luciferase ABS 11-pt Reconfirmation Dose Response (48hr): IC50 (μM); 11-pt dose response, 48hr
# reported IC50; entries follow
REPORTED_ENDPOINT: IC50

In [3]: df
Out[3]:
                                    compound                           target_of_assay  observed_measurement
 0  CN1CCN(CC(NCc2ccc(F)c(F)c2)c2ccccc2)CC1 (centres unmarked)  P. falciparum Dd2 (PfLuc) line expressing firefly luciferase, asexual blood stage               5.37 µM
 1  Cc1ccc(CN(c2cc(C)nc3nc(C(F)(F)F)nn23)C2CC2)cc1  P. falciparum Dd2 (PfLuc) line expressing firefly luciferase, asexual blood stage               2.34 µM
 2  CC(C)(C)C(=O)N1C[C@H](c2ccsc2)[C@H]2CN(C3CCCCC3)CC[C@H]21  P. falciparum Dd2 (PfLuc) line expressing firefly luciferase, asexual blood stage             > 12.5 µM
 3  CN(Cc1cccc(O)c1)CC1CCCN(CCc2ccc(Cl)cc2)C1 (centres unmarked)  P. falciparum Dd2 (PfLuc) line expressing firefly luciferase, asexual blood stage               2.24 µM
 4  Cc1nccn1CCCN1CCCC(c2ccccc2)C1 (centres unmarked)  P. falciparum Dd2 (PfLuc) line expressing firefly luciferase, asexual blood stage                3.3 µM
 5  COc1ccc(C(=O)NCCCOC(C)c2ccccc2)c(OC)c1 (centres unmarked)  P. falciparum Dd2 (PfLuc) line expressing firefly luciferase, asexual blood stage               9.88 µM
 6  CCN1CCN(c2ccc(F)cc2C(C)NCc2ccccn2)CC1 (centres unmarked)  P. falciparum Dd2 (PfLuc) line expressing firefly luciferase, asexual blood stage             > 12.5 µM
 7  Cc1cn2c(n1)C(CNCc1ccc(C)s1)CCC2 (centres unmarked)  P. falciparum Dd2 (PfLuc) line expressing firefly luciferase, asexual blood stage               1.64 µM
 8  OC1(CN2CCC(Oc3cccc(C(F)(F)F)c3)CC2)CCNC1 (centres unmarked)  P. falciparum Dd2 (PfLuc) line expressing firefly luciferase, asexual blood stage               2.08 µM
 9     Cc1noc(C)c1CNCc1ccccc1N(C)C1CCN(C)CC1  P. falciparum Dd2 (PfLuc) line expressing firefly luciferase, asexual blood stage             > 12.5 µM
10  Cc1ccc(C(CCNCCCN(C)C)C2CCOC(C)(C)C2)cc1 (centres unmarked)  P. falciparum Dd2 (PfLuc) line expressing firefly luciferase, asexual blood stage               7.59 µM
11  Clc1cccc(C(NCc2ncc[nH]2)c2ccccn2)c1 (centres unmarked)  P. falciparum Dd2 (PfLuc) line expressing firefly luciferase, asexual blood stage               1.99 µM
12    CC(C)N(C)Cc1cnc2n1CCN(C(=O)NC1CCCC1)C2  P. falciparum Dd2 (PfLuc) line expressing firefly luciferase, asexual blood stage             > 12.5 µM
13   c1cc(-c2n[nH]cc2-c2ccnc(N3CCCC3)n2)ccn1  P. falciparum Dd2 (PfLuc) line expressing firefly luciferase, asexual blood stage             > 4.16 µM
14   Cc1ccc(CN2CCC3(CC2)CCN(Cc2ccoc2)CC3)cc1  P. falciparum Dd2 (PfLuc) line expressing firefly luciferase, asexual blood stage               2.04 µM
15            COc1ccc(-c2ccccc2CCN)c(OC)c1OC  P. falciparum Dd2 (PfLuc) line expressing firefly luciferase, asexual blood stage                3.3 µM
16  CC(NCCc1nccn1Cc1ccccc1)c1ccsc1 (centres unmarked)  P. falciparum Dd2 (PfLuc) line expressing firefly luciferase, asexual blood stage               4.05 µM
17                  NCC1(c2cccc(Br)c2)CCOCC1  P. falciparum Dd2 (PfLuc) line expressing firefly luciferase, asexual blood stage               4.79 µM
18     CCc1cc(CNCc2ccccc2N(C)C2CCN(C)CC2)on1  P. falciparum Dd2 (PfLuc) line expressing firefly luciferase, asexual blood stage             > 12.5 µM
19  CCN(Cc1c(F)cccc1Cl)c1cc(C2CCNCC2)nc(C)n1  P. falciparum Dd2 (PfLuc) line expressing firefly luciferase, asexual blood stage              0.763 µM
